- TGT: UniProtKB P21452
- Sequence (P21452 1-398): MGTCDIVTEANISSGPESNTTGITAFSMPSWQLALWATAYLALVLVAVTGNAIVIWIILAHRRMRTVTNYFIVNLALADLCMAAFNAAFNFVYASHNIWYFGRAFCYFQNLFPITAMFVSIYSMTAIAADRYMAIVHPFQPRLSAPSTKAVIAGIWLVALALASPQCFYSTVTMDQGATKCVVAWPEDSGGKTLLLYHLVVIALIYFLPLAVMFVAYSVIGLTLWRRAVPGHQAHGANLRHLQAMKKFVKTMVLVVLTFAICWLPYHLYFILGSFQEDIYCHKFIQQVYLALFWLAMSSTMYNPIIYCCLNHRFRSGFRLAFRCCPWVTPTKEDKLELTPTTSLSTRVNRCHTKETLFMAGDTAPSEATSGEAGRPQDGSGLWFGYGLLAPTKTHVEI
- ASSAY_OVERVIEW: [3H]SR48968 competition binding assay
- TEST_CONTEXT: [3H]SR48968 displacement, membranes of CHO cells stably expressing recombinant human NK2 receptor; Ki from IC50 by Cheng-Prussoff
Below, each entry is listed alongside its reported Ki.
// note: answer is a bare numeric in nM

// known answers, use as guide
{"columns": ["MOLECULE", "Ki / nM"],
 "data": [
  ["COc1cc(C(=O)N(C)[C@H]2CN(C(=O)C3CCN(C(=O)C4(C)CC4)CC3)C[C@@H]2c2ccc(Cl)c(Cl)c2)ccc1Cl (racemic) [Example 99]", 0.9],
  ["CN(C(=O)c1ccc(Cl)c(C2CC2)c1)[C@H]1CN(C(=O)C2CCN(C(=O)C3(C)CC3)CC2)C[C@@H]1c1ccc(Cl)c(Cl)c1 (racemic) [Example 173]", 1.7],
  ["CN(C(=O)CC1CCCC1)[C@H]1CN(C(=O)C2CCN(CC3CC3)CC2)C[C@@H]1c1ccc(Cl)c(Cl)c1 (racemic) [Example 151]", 6.7],
  ["CN(C(=O)c1ccc(Cl)c(C(F)(F)F)c1)[C@@H]1CN(C(=O)c2ccc(C#N)cc2)C[C@H]1c1ccc(Cl)c(Cl)c1 (racemic) [Example 72]", 0.58],
  ["COc1ccc(C(=O)N[C@H]2CN(C(=O)C3CCN(C(=O)C4(C)CC4)CC3)C[C@@H]2c2ccc(Cl)cc2C)cc1C(F)(F)F (racemic) [Example 122]", 82]
]}

Now for another entry.
Form field Ki, entry COc1ccc(C(=O)N(C)[C@@H]2CN(C(=O)N3CCN(S(C)(=O)=O)CC3)C[C@H]2c2ccc(Cl)cc2)cc1C(F)(F)F (racemic) [Example 6] : 10.7

====

Below, each entry is listed alongside its reported pKi.
- TGT: human NK2 receptor (Homo sapiens)
- ASSAY_OVERVIEW: [3H]SR48968 competition binding assay
- TEST_CONTEXT: [3H]SR48968 displacement, membranes of CHO cells stably expressing recombinant human NK2 receptor; Ki from IC50 by Cheng-Prussoff
Remember the convention: pKi equals -log10 of concentration in molar.

// known answers, use as guide
{"columns": ["COMPOUND", "pKi"],
 "data": [
  ["CN(C(=O)c1cccc(C#N)c1)[C@@H]1CN(C(=O)N2CCN(S(C)(=O)=O)CC2)C[C@H]1c1ccc(Cl)c(Cl)c1 (racemic)", 7.19],
  ["COc1ccc(C(=O)N(C)[C@@H]2CN(C(=O)c3cccc(C#N)c3)C[C@H]2c2ccc(Cl)c(Cl)c2)cc1C(F)(F)F (racemic)", 8.44],
  ["COc1ccc(C(=O)N(C)[C@H]2CN(C(=O)C3CCN(C(=O)C4(C)CC4)CC3)C[C@@H]2c2ccc(Cl)cc2C)cc1C(F)(F)F", 7.42]
]}

Form field pKi, entry COc1ccc(C(=O)N(C)[C@H]2CN(C(=O)C3CCN(C(=O)OC(C)(C)C)CC3)C[C@@H]2c2ccc(Cl)c(Cl)c2)cc1C(F)(F)F (racemic) : 8.89

Form field pKi, entry "CN(C(=O)c1ccc(Cl)c(C(F)(F)F)c1)[C@@H]1CN(C(=O)C2CCN(CC3CC3)CC2)C[C@H]1c1ccc(Cl)cc1" : 9.30

Form field pKi, entry CN(C(=O)c1ccc(F)cc1)[C@@H]1CN(C(=O)N2CCN(S(C)(=O)=O)CC2)C[C@H]1c1ccc(Cl)c(Cl)c1 (racemic) : 7.54

====

- TGT: human NK2 receptor (Homo sapiens, UniProt P21452)
- Sequence (P21452 1-398): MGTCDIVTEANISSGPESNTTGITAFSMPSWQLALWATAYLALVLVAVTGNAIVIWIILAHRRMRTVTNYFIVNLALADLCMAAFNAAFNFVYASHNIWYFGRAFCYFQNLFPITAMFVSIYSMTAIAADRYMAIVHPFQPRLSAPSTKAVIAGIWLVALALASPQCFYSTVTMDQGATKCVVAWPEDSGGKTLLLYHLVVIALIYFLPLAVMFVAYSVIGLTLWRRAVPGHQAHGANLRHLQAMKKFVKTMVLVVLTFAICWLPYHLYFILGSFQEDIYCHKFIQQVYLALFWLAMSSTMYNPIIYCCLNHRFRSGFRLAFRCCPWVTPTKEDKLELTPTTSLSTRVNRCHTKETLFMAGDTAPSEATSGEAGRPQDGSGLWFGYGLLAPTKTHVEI
- ASSAY_OVERVIEW: [3H]SR48968 competition binding assay
- TEST_CONTEXT: [3H]SR48968 displacement, membranes of CHO cells stably expressing recombinant human NK2 receptor; Ki from IC50 by Cheng-Prussoff
- Description: [^3H]SR48968 Competition Binding Assay hNK2 receptor binding experiment were performed using [^3H]SR48968 (Catalog No. TRK398, specific activity: 27.0 Ci/mmol, Amersham, GE Healthcare UK limited, Buckinghamshire, UK) and membrane isolated from CHO cells stably expressing recombinant human NK2 receptor (product No. 6110510, Perkin Elmer biosignal Inc., Shelton, Conn., USA). […]
MEASURED_PROPERTY: pKi
Remember the convention: pKi equals -log10 of concentration in molar.

// known answers, use as guide
{"columns": ["MOLECULE", "READOUT_NUMBER"],
 "data": [
  ["COc1ccc(C(=O)N(C)[C@H]2CN(C(=O)C3CCN(CC(C)(C)C)CC3)C[C@@H]2c2ccc(Cl)cc2)cc1C(F)(F)F (racemic)", 9.10],
  ["CN(C(=O)c1cc(C(F)(F)F)ccn1)[C@@H]1CN(C(=O)C2CCN(C(=O)C3(C)CC3)CC2)C[C@H]1c1ccc(Cl)c(Cl)c1", 9.40]
]}

Form field pKi, entry "COc1ccc(C(=O)N(C)[C@@H]2CN(C(=O)C3CCN(C(=O)C4(C)CC4)CC3)C[C@H]2c2ccc(Cl)c(Cl)c2)cc1C(F)(F)F" : 9.22

Form field pKi, entry COc1ccc(C(=O)N(C)[C@@H]2CN(C(=O)N3CCN(S(C)(=O)=O)CC3)C[C@H]2c2ccc(Cl)c(Cl)c2)cc1Cl (racemic) : 8.07

Form field pKi, entry Cc1cc(C(=O)N(C)[C@@H]2CN(C(=O)N3CCN(S(C)(=O)=O)CC3)C[C@H]2c2ccc(Cl)c(Cl)c2)ccc1F (racemic) : 8.22

Form field pKi, entry COc1ccc(C(=O)N(C)[C@H]2CN(C(=O)C3CCNCC3)C[C@@H]2c2ccc(Cl)cc2)cc1C(F)(F)F (racemic) : 8.15

====

- TGT: human NK2 receptor (Homo sapiens)
- Construct: purchased Perkin Elmer biosignal Inc. 6110510
- ASSAY_OVERVIEW: [3H]SR48968 competition binding assay
- TEST_CONTEXT: [3H]SR48968 displacement, membranes of CHO cells stably expressing recombinant human NK2 receptor; Ki from IC50 by Cheng-Prussoff
MEASURED_PROPERTY: pKi
Remember the convention: pKi equals -log10 of concentration in molar.

{"columns": ["COMPOUND", "TGT", "pKi"],
 "data": [
  ["CN(C(=O)CCc1ccc(F)cc1)[C@H]1CN(C(=O)C2CCN(C(=O)C3(C)CC3)CC2)C[C@@H]1c1ccc(Cl)c(Cl)c1 (racemic)", "human NK2 receptor (Homo sapiens)", 8.62],
  ["CN(C(=O)c1ccccc1)[C@@H]1CN(C(=O)N2CCN(S(C)(=O)=O)CC2)C[C@H]1c1ccc(Cl)c(Cl)c1 (racemic)", "human NK2 receptor (Homo sapiens)", 7.06]
]}

Now for another entry.
Form field pKi, entry CN(C(=O)c1ccc(Cl)nc1)[C@@H]1CN(C(=O)c2ccc(C#N)cc2)C[C@H]1c1ccc(Cl)c(Cl)c1 (racemic) : 8.11

====

Below, each entry is listed alongside its reported Ki.
- TGT: human NK2 receptor (Homo sapiens)
- Construct: purchased Perkin Elmer biosignal Inc. 6110510
- ASSAY_OVERVIEW: [3H]SR48968 competition binding assay
- TEST_CONTEXT: [3H]SR48968 displacement, membranes of CHO cells stably expressing recombinant human NK2 receptor; Ki from IC50 by Cheng-Prussoff
Param answer (str): number followed by unit.

// known answers, use as guide
{"columns": ["COMPOUND", "Ki"],
 "data": [
  ["CN(C(=O)C(C)(C)c1ccc(F)cc1)[C@H]1CN(C(=O)C2CCN(C(=O)C3(C)CC3)CC2)C[C@@H]1c1ccc(Cl)c(Cl)c1 (racemic) [Example 125]", "67.9 nM"],
  ["COc1ccc(C(=O)N(C)[C@H]2CN(C(=O)c3ccc(F)cc3C)C[C@@H]2c2ccc(Cl)cc2)cc1C(F)(F)F (racemic) [Example 89]", "23.3 nM"]
]}

# Ki measured on human NK2 receptor (Homo sapiens) for item COCCN1CCC(C(=O)N2C[C@H](c3ccc(Cl)c(Cl)c3)[C@@H](N(C)C(=O)c3ccc(OC)c(C(F)(F)F)c3)C2)CC1 (racemic) [Example 144] = 0.9 nM

# Ki measured on human NK2 receptor (Homo sapiens) for item COc1ccc(C(=O)N(C)[C@@H]2CN(C(=O)C3CCN(C(=O)C4(C)CC4)CC3)C[C@H]2c2ccc(Cl)cc2)cc1C(F)(F)F [Example 94] = 0.6 nM

# Ki measured on human NK2 receptor (Homo sapiens) for item C=C(F)CN1CCC(C(=O)N2C[C@H](c3ccc(Cl)c(Cl)c3)[C@@H](N(C)C(=O)c3ccc(OC)c(C(F)(F)F)c3)C2)CC1 (racemic) [Example 148] = 0.5 nM

# Ki measured on human NK2 receptor (Homo sapiens) for item CN(C(=O)c1ccc(OCC2CC2)cc1)[C@@H]1CN(C(=O)c2ccc(C#N)cc2)C[C@H]1c1ccc(Cl)c(Cl)c1 (racemic) [Example 75] = 23 nM

# Ki measured on human NK2 receptor (Homo sapiens) for item COc1ccc(C(=O)N(C)[C@@H]2CN(C(=O)c3ccc(C#N)cc3)C[C@H]2c2ccc(Cl)c(Cl)c2)cc1C(C)(C)C (racemic) [Example 74] = 1.3 nM

# Ki measured on human NK2 receptor (Homo sapiens) for item Cc1cc(Cl)cc(C(=O)N(C)[C@@H]2CN(C(=O)c3ccc(C#N)cc3)C[C@H]2c2ccc(Cl)c(Cl)c2)n1 (racemic) [Example 66] = 49.8 nM

# Ki measured on human NK2 receptor (Homo sapiens) for item COc1ccc(C(=O)N(C)[C@@H]2CN(C(=O)c3ccc(C#N)cc3)C[C@H]2c2ccc(Cl)c(Cl)c2)cc1C(F)(F)F (racemic) [Example 41] = 1.45 nM

# Ki measured on human NK2 receptor (Homo sapiens) for item CN(C(=O)c1ccc2nccnc2c1)[C@@H]1CN(C(=O)N2CCN(S(C)(=O)=O)CC2)C[C@H]1c1ccc(Cl)c(Cl)c1 (racemic) [Example 34] = 76.7 nM

# Ki measured on human NK2 receptor (Homo sapiens) for item CN(C(=O)CC(C)(C)C)[C@H]1CN(C(=O)C2CCN(C(=O)C3(C)CC3)CC2)C[C@@H]1c1ccc(Cl)c(Cl)c1 (racemic) [Example 115] = 23 nM

# Ki measured on human NK2 receptor (Homo sapiens) for item CN(C(=O)c1ccc(F)c(Cl)c1)[C@@H]1CN(C(=O)N2CCN(S(C)(=O)=O)CC2)C[C@H]1c1ccc(Cl)c(Cl)c1 (racemic) [Example 32] = 4.57 nM

# Ki measured on human NK2 receptor (Homo sapiens) for item CN(C(=O)c1ccc2c(c1)CCO2)[C@@H]1CN(C(=O)N2CCN(S(C)(=O)=O)CC2)C[C@H]1c1ccc(Cl)c(Cl)c1 (racemic) [Example 31] = 14.8 nM

# Ki measured on human NK2 receptor (Homo sapiens) for item CCc1cc(C(=O)N(C)[C@H]2CN(C(=O)C3CCN(C(=O)C4(C)CC4)CC3)C[C@@H]2c2ccc(Cl)c(Cl)c2)ccc1Cl (racemic) [Example 174] = 0.9 nM

# Ki measured on human NK2 receptor (Homo sapiens) for item CN(C(=O)c1ccc(C#N)nc1)[C@@H]1CN(C(=O)c2ccc(C#N)cc2)C[C@H]1c1ccc(Cl)c(Cl)c1 (racemic) [Example 80] = 40 nM

# Ki measured on human NK2 receptor (Homo sapiens) for item COc1ccc(C(=O)N(C)[C@H]2CN(C(=O)C3CCNCC3)C[C@@H]2c2ccc(Cl)c(Cl)c2)cc1C(F)(F)F (racemic) [Example 133] = 0.2 nM

# Ki measured on human NK2 receptor (Homo sapiens) for item COc1ccc(C(=O)N(C)[C@@H]2CN(C(=O)N3CCN(S(C)(=O)=O)CC3)C[C@H]2c2ccc(Cl)c(Cl)c2)cc1C(F)(F)F (racemic) [Example 8] = 2.33 nM

# Ki measured on human NK2 receptor (Homo sapiens) for item CN(C(=O)c1ccc(Cl)c(C2CC2)c1)[C@@H]1CN(C(=O)C2CCN(C(=O)C3(C)CC3)CC2)C[C@H]1c1ccc(Cl)c(Cl)c1 [Example 176] = 0.6 nM

Source: patent US8404679B2
